Source of measurements: patent US20050282743A1

- TEST TARGET: GST-KIAA807 [GST: P08515]
- Sequence (P08515 whole entry): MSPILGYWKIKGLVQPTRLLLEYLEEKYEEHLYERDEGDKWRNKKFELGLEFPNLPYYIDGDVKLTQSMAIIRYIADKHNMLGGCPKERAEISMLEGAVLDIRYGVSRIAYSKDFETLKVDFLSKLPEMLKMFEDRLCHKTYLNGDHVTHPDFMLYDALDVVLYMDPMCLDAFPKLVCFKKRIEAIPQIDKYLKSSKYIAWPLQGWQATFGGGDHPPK
- ASSAY PROTOCOL: G assay titration, PDZ 5 ug/ml
MEASURED METRIC: Kd

# BINDER, Kd
data = [
    ("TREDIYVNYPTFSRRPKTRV (modifications not checked) [DNAM-1]", "2000 nM"),
]

Here is the next item to consider.
// Kd value for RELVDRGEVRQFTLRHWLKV (modifications not checked) [Dopamine transporter] : 400 nM
